target: μ-opioid receptor (Homo sapiens (Human)); assay: μ-opioid receptor [35S]GTPγS functional assay, U-2 OS cells; type: biochemical
A collection of molecules and their measured EC50
attribute measured: EC50 (µM)

[[record]]
substance_smiles = "CS(=O)(=O)c1cc2c([nH]c1=O)C[C@]13CCN(CC4CC4)[C@H](Cc4ccc(O)cc41)[C@]3(O)C2"
assay_target = "μ-opioid receptor (Homo sapiens (Human))"
attribute_measured = "EC50"
measurement_unit = "µM"
rel = ">"
quantitative_readout = 20

[[record]]
substance_smiles = "CN1CC[C@]23Cc4[nH]c(=O)c(S(C)(=O)=O)cc4C[C@@]2(O)[C@H]1Cc1ccc(O)cc13"
assay_target = "μ-opioid receptor (Homo sapiens (Human))"
attribute_measured = "EC50"
measurement_unit = "µM"
rel = "="
quantitative_readout = 0.148

[[record]]
substance_smiles = "O=c1[nH]c2c(cc1S(=O)(=O)c1ccccc1)C[C@@]1(O)[C@H]3Cc4ccc(O)cc4[C@@]1(CCN3CC1CC1)C2"
assay_target = "μ-opioid receptor (Homo sapiens (Human))"
attribute_measured = "EC50"
measurement_unit = "µM"
rel = ">"
quantitative_readout = 20

[[record]]
substance_smiles = "CN1CC[C@]23Cc4[nH]c(=O)c(S(=O)(=O)c5ccccc5)cc4C[C@@]2(O)[C@H]1Cc1ccc(O)cc13"
assay_target = "μ-opioid receptor (Homo sapiens (Human))"
attribute_measured = "EC50"
measurement_unit = "µM"
rel = "="
quantitative_readout = 0.0775

